B1: EEHEE_rd3_0130 (parent)
chain: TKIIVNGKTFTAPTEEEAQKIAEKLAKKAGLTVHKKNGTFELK

variants of: B1; assay: folding stability dG (cDNA display proteolysis); higher = more stable; settings: PBS, room temperature
Assay Readout: folding stability dG (kcal/mol)
Answers are plain numbers, in kcal/mol.

K36V 1.52
Q19L 0.972
G38N 0.509
K28R 1.14

Each variant below has a recorded value; state its folding stability dG.
1. P13Q
2. K43W
3. T32Q
4. A22T
5. H34P
6. N37P

Response:
1. 0.651
2. 1.16
3. 0.523
4. -0.186
5. -0.455
6. 0.201

"G7Y" has a reported folding stability dG of 0.159
